Test system: CN0375-F725-PDC KRAS spheroid viability;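 note: spheroids exposed to agents for 7 days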
Test: Anticancer human tumor CN0375-F725-PDC patient-derived colon carcinoma cell line growth inhibition [KRAS2]
Details: second compound 0.1 µM; first compound 0.316 µM; active compounds read low; spheroids with HUVEC and MSC
Measurement name: viability, T/C (%)
Your answer is read as %, so omit the unit and give the number.

CC1(C)CCC(CN2CCN(c3ccc(C(=O)NS(=O)(=O)c4ccc(NCC5CCOCC5)c([N+](=O)[O-])c4)c(Oc4cnc5[nH]ccc5c4)c3)CC2)=C(c2ccc(Cl)cc2)C1 + C=CC(=O)N1CCN(c2nc(=O)n(-c3c(C)ccnc3C(C)C)c3nc(-c4c(O)cccc4F)c(F)cc23)C(C)C1 = 105

CN0375-F725-PDC KRAS spheroid viability / viability, T/C / CCN1CCN(Cc2ccc(Nc3ncc(F)c(-c4cc(F)c5nc(C)n(C(C)C)c5c4)n3)nc2)CC1 + C=CC(=O)N1CCN(c2nc(OCC3CCCN3C)nc3c2CCN(c2cccc4cccc(C)c24)C3)CC1CC#N : value?;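 note: spheroids exposed to agents for 7 days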
104

Notebook entry, CN0375-F725-PDC KRAS spheroid viability assay: viability, T/C of O=C(c1cc(Cc2n[nH]c(=O)c3ccccc23)ccc1F)N1CCN(C(=O)C2CC2)CC1 + CC1OCC2(CCN(c3cnc(Sc4ccnc(N)c4Cl)c(N)n3)CC2)C1N = ?
91.3

Query for CN0375-F725-PDC KRAS spheroid viability: what viability, T/C does the record show for COc1cc(Nc2ncc3c(n2)-c2ccc(Cl)cc2C(c2c(F)cccc2OC)=NC3)ccc1C(=O)O + C=CC(=O)N1CCN(c2nc(OCC3CCCN3C)nc3c2CCN(c2cccc4cccc(C)c24)C3)CC1CC#N ?
91.3

Request: viability, T/C, test system CN0375-F725-PDC KRAS spheroid viability, entry COc1cc2nccc(Oc3ccc(NC(=O)C4(C(=O)Nc5ccc(F)cc5)CC4)cc3)c2cc1OC + COc1cc2nc(C)nc(NC(C)c3cc(N)cc(C(F)(F)F)c3)c2cc1OC1CCOC1;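 note: spheroids exposed to agents for 7 days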
89.8

Look up viability, T/C with CN0375-F725-PDC KRAS spheroid viability for this compound: Cn1nccc1Nc1nccc(-c2cc3c(s2)C(C)(C)N(CCN2CCOCC2)C3=O)n1 + CC1OCC2(CCN(c3cnc(Sc4ccnc(N)c4Cl)c(N)n3)CC2)C1N
69.8

Value wanted: viability, T/C (CN0375-F725-PDC KRAS spheroid viability) of entry CC1OCC2(CCN(c3cnc(Sc4ccnc(N)c4Cl)c(N)n3)CC2)C1N (stereo not given) + COc1cc2nc(C)nc(NC(C)c3cc(N)cc(C(F)(F)F)c3)c2cc1OC1CCOC1
80.6

Which measured viability, T/C belongs to CCNC(=O)CC1N=C(c2ccc(Cl)cc2)c2cc(OC)ccc2-n2c(C)nnc21 (stereo not given) + CC1OCC2(CCN(c3cnc(Sc4ccnc(N)c4Cl)c(N)n3)CC2)C1N , tested on CN0375-F725-PDC KRAS spheroid viability?;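 note: spheroids exposed to agents for 7 days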
79.4

State its viability, T/C on CN0375-F725-PDC KRAS spheroid viability: COc1cc(Nc2ncc3c(n2)-c2ccc(Cl)cc2C(c2c(F)cccc2OC)=NC3)ccc1C(=O)O + CNCc1ccccc1-c1csc(C(C)Nc2nc(C)nc3cc(OC)c(OC)cc23)c1
93.5
